tested on: HOP-62 multicell spheroids with HUVEC/MSC, viability; experiment: Anticancer human tumor HOP-62 cell line growth inhibition [KRAS2]; conditions: second compound 0.1 µM; first compound 3.16 µM; active compounds read low;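 further: viability read after a week of compound exposure; 100% = DMSO vehicle-treated spheroids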
Assignment: determine reported viability, T/C for the given molecules.

INPUT: Recorded viability, T/C of O=C(c1cc(Cc2n[nH]c(=O)c3ccccc23)ccc1F)N1CCN(C(=O)C2CC2)CC1 + COc1cc2nc(C)nc(NC(C)c3cc(N)cc(C(F)(F)F)c3)c2cc1OC1CCOC1 , please.
OUTPUT: 85.1%

INPUT: Now consider CCNC(=O)CC1N=C(c2ccc(Cl)cc2)c2cc(OC)ccc2-n2c(C)nnc21 (stereo not given) + CC1OCC2(CCN(c3cnc(Sc4ccnc(N)c4Cl)c(N)n3)CC2)C1N .
OUTPUT: 28.6%

INPUT: Now consider COc1cc2nccc(Oc3ccc(NC(=O)C4(C(=O)Nc5ccc(F)cc5)CC4)cc3)c2cc1OC + CNCc1ccccc1-c1csc(C(C)Nc2nc(C)nc3cc(OC)c(OC)cc23)c1 .
OUTPUT: 76%

INPUT: Now consider CC1OCC2(CCN(c3cnc(Sc4ccnc(N)c4Cl)c(N)n3)CC2)C1N (stereo not given) + CNCc1ccccc1-c1csc(C(C)Nc2nc(C)nc3cc(OC)c(OC)cc23)c1 .
OUTPUT: 65.3%

INPUT: Now consider CC1(C)CCC(CN2CCN(c3ccc(C(=O)NS(=O)(=O)c4ccc(NCC5CCOCC5)c([N+](=O)[O-])c4)c(Oc4cnc5[nH]ccc5c4)c3)CC2)=C(c2ccc(Cl)cc2)C1 + COc1cc2nc(C)nc(NC(C)c3cc(N)cc(C(F)(F)F)c3)c2cc1OC1CCOC1 .
OUTPUT: 58%

###

test system: HOP-62 multicell spheroids with HUVEC/MSC, viability; test: Anticancer human tumor HOP-62 cell line growth inhibition [KRAS2]; conditions: second compound 3.16 µM; first compound 0.0316 µM; active compounds read low;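 further: viability read after a week of compound exposure; 100% = DMSO vehicle-treated spheroids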
Assignment: determine reported viability, T/C for the given compounds.
Respond with the bare value in %.

INPUT: Recorded viability, T/C of CC(C)n1nc(-c2ccc3oc(N)nc3c2)c2c(N)ncnc21 + COc1cc2nc(C)nc(NC(C)c3cc(N)cc(C(F)(F)F)c3)c2cc1OC1CCOC1 , please.
OUTPUT: 11.8

INPUT: Now consider COc1cc(Nc2ncc3c(n2)-c2ccc(Cl)cc2C(c2c(F)cccc2OC)=NC3)ccc1C(=O)O + C=CC(=O)N1CCN(c2nc(=O)n(-c3c(C)ccnc3C(C)C)c3nc(-c4c(O)cccc4F)c(F)cc23)C(C)C1 .
OUTPUT: 37.6

INPUT: Now consider CC(C)n1nc(-c2ccc3oc(N)nc3c2)c2c(N)ncnc21 + C=CC(=O)N1CCN(c2nc(=O)n(-c3c(C)ccnc3C(C)C)c3nc(-c4c(O)cccc4F)c(F)cc23)C(C)C1 .
OUTPUT: 12.4

INPUT: Now consider COc1cc(Nc2ncc3c(n2)-c2ccc(Cl)cc2C(c2c(F)cccc2OC)=NC3)ccc1C(=O)O + CNCc1ccccc1-c1csc(C(C)Nc2nc(C)nc3cc(OC)c(OC)cc23)c1 .
OUTPUT: 15.7

INPUT: Now consider CC(C)n1nc(-c2ccc3oc(N)nc3c2)c2c(N)ncnc21 + C=CC(=O)N1CCN(c2nc(OCC3CCCN3C)nc3c2CCN(c2cccc4cccc(C)c24)C3)CC1CC#N .
OUTPUT: 0.63

INPUT: Now consider CCN1CCN(Cc2ccc(Nc3ncc(F)c(-c4cc(F)c5nc(C)n(C(C)C)c5c4)n3)nc2)CC1 + COc1cc2nc(C)nc(NC(C)c3cc(N)cc(C(F)(F)F)c3)c2cc1OC1CCOC1 .
OUTPUT: 50.6

INPUT: Now consider CC(=O)Nc1cccc(-n2c(=O)n(C3CC3)c(=O)c3c(Nc4ccc(I)cc4F)n(C)c(=O)c(C)c32)c1 + CC1OCC2(CCN(c3cnc(Sc4ccnc(N)c4Cl)c(N)n3)CC2)C1N .
OUTPUT: 15.7

INPUT: Now consider CC(C)NCC(C(=O)N1CCN(c2ncnc3c2C(C)CC3O)CC1)c1ccc(Cl)cc1 (stereo unspecified) + CNCc1ccccc1-c1csc(C(C)Nc2nc(C)nc3cc(OC)c(OC)cc23)c1 .
OUTPUT: 0.41

INPUT: Now consider CC(C)NCC(C(=O)N1CCN(c2ncnc3c2C(C)CC3O)CC1)c1ccc(Cl)cc1 (stereo unspecified) + C=CC(=O)N1CCN(c2nc(OCC3CCCN3C)nc3c2CCN(c2cccc4cccc(C)c24)C3)CC1CC#N .
OUTPUT: 0.51

INPUT: Now consider O=C(c1cc(Cc2n[nH]c(=O)c3ccccc23)ccc1F)N1CCN(C(=O)C2CC2)CC1 + CNCc1ccccc1-c1csc(C(C)Nc2nc(C)nc3cc(OC)c(OC)cc23)c1 .
OUTPUT: 35.1

INPUT: Now consider CC1COCCN1c1cc(-c2ccnn2C)c2ccnc(-c3ccn[nH]3)c2n1 (stereo unspecified) + CNCc1ccccc1-c1csc(C(C)Nc2nc(C)nc3cc(OC)c(OC)cc23)c1 .
OUTPUT: 0.24

INPUT: Now consider Cn1nccc1Nc1nccc(-c2cc3c(s2)C(C)(C)N(CCN2CCOCC2)C3=O)n1 + COc1cc2nc(C)nc(NC(C)c3cc(N)cc(C(F)(F)F)c3)c2cc1OC1CCOC1 .
OUTPUT: 93.8

INPUT: Now consider CC1COCCN1c1cc(-c2ccnn2C)c2ccnc(-c3ccn[nH]3)c2n1 (stereo unspecified) + CC1OCC2(CCN(c3cnc(Sc4ccnc(N)c4Cl)c(N)n3)CC2)C1N .
OUTPUT: 30.6

INPUT: Now consider CC(C)NCC(C(=O)N1CCN(c2ncnc3c2C(C)CC3O)CC1)c1ccc(Cl)cc1 (stereo unspecified) + CC1OCC2(CCN(c3cnc(Sc4ccnc(N)c4Cl)c(N)n3)CC2)C1N .
OUTPUT: 37.6

INPUT: Now consider CN(C)C/C=C/C(=O)Nc1cc2c(Nc3ccc(F)c(Cl)c3)ncnc2cc1O[C@H]1CCOC1 + COc1cc2nc(C)nc(NC(C)c3cc(N)cc(C(F)(F)F)c3)c2cc1OC1CCOC1 .
OUTPUT: 59.8

INPUT: Now consider CC(=O)Nc1cccc(-n2c(=O)n(C3CC3)c(=O)c3c(Nc4ccc(I)cc4F)n(C)c(=O)c(C)c32)c1 + C=CC(=O)N1CCN(c2nc(=O)n(-c3c(C)ccnc3C(C)C)c3nc(-c4c(O)cccc4F)c(F)cc23)C(C)C1 .
OUTPUT: 22.1

INPUT: Now consider COc1cc2nccc(Oc3ccc(NC(=O)C4(C(=O)Nc5ccc(F)cc5)CC4)cc3)c2cc1OC + C=CC(=O)N1CCN(c2nc(OCC3CCCN3C)nc3c2CCN(c2cccc4cccc(C)c24)C3)CC1CC#N .
OUTPUT: 0.14

INPUT: Now consider COC(=O)c1ccc2c(C(=Nc3ccc(N(C)C(=O)CN4CCN(C)CC4)cc3)c3ccccc3)c(O)[nH]c2c1 + C=CC(=O)N1CCN(c2nc(OCC3CCCN3C)nc3c2CCN(c2cccc4cccc(C)c24)C3)CC1CC#N .
OUTPUT: 6.95

INPUT: Now consider O=C(c1cc(Cc2n[nH]c(=O)c3ccccc23)ccc1F)N1CCN(C(=O)C2CC2)CC1 + CC1OCC2(CCN(c3cnc(Sc4ccnc(N)c4Cl)c(N)n3)CC2)C1N .
OUTPUT: 44.2

INPUT: Now consider CC(=O)OC12COC1CC(O)C1(C)C(=O)C(O)C3=C(C)C(OC(=O)C(O)C(NC(=O)OC(C)(C)C)c4ccccc4)CC(O)(C(OC(=O)c4ccccc4)C21)C3(C)C (stereo unspecified) + COc1cc2nc(C)nc(NC(C)c3cc(N)cc(C(F)(F)F)c3)c2cc1OC1CCOC1 .
OUTPUT: 27.3

INPUT: Now consider COC(=O)c1ccc2c(C(=Nc3ccc(N(C)C(=O)CN4CCN(C)CC4)cc3)c3ccccc3)c(O)[nH]c2c1 + CNCc1ccccc1-c1csc(C(C)Nc2nc(C)nc3cc(OC)c(OC)cc23)c1 .
OUTPUT: 12.6

###

test system: HOP-62 multicell spheroids with HUVEC/MSC, viability; experiment: Anticancer human tumor HOP-62 cell line growth inhibition [KRAS2]; conditions: second compound 3.16 µM; first compound 0.01 µM; active = viability on the fitted dose curve at most 10% of control; inactive = the rest;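 further: viability read after a week of compound exposure; 100% = DMSO vehicle-treated spheroids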
Assign a class; possible classes are active, inactive

INPUT: Tell me the assay call for Cn1ncnc1[C@H]1c2n[nH]c(=O)c3cc(F)cc(c23)N[C@@H]1c1ccc(F)cc1 + C=CC(=O)N1CCN(c2nc(OCC3CCCN3C)nc3c2CCN(c2cccc4cccc(C)c24)C3)CC1CC#N please.
OUTPUT: active

INPUT: Now consider CC1COCCN1c1cc(-c2ccnn2C)c2ccnc(-c3ccn[nH]3)c2n1 (stereo not given) + C=CC(=O)N1CCN(c2nc(OCC3CCCN3C)nc3c2CCN(c2cccc4cccc(C)c24)C3)CC1CC#N .
OUTPUT: active

INPUT: Now consider CC1COCCN1c1cc(-c2ccnn2C)c2ccnc(-c3ccn[nH]3)c2n1 (stereo not given) + COc1cc2nc(C)nc(NC(C)c3cc(N)cc(C(F)(F)F)c3)c2cc1OC1CCOC1 .
OUTPUT: inactive

INPUT: Now consider Cn1ncnc1[C@H]1c2n[nH]c(=O)c3cc(F)cc(c23)N[C@@H]1c1ccc(F)cc1 + C=CC(=O)N1CCN(c2nc(=O)n(-c3c(C)ccnc3C(C)C)c3nc(-c4c(O)cccc4F)c(F)cc23)C(C)C1 .
OUTPUT: inactive

INPUT: Now consider CC1COCCN1c1cc(-c2ccnn2C)c2ccnc(-c3ccn[nH]3)c2n1 (stereo not given) + C=CC(=O)N1CCN(c2nc(=O)n(-c3c(C)ccnc3C(C)C)c3nc(-c4c(O)cccc4F)c(F)cc23)C(C)C1 .
OUTPUT: inactive
